- Tested on: MOLM14
- Protocol notes: cell viability relative to vehicle control; higher = less cytotoxic;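 also: after 48 h exposure read by CellTiter-Glo luminescence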
- Condition set: 10 µM; SRSF2 genotype: SRSF2 wt/wt
Provide the reported cell viability of each item.
Express the result in % but write the number alone.

Inquiry: Which cell viability value belongs to Nc1nc(NCCc2ccc(O)cc2)nc2nc(-c3ccco3)nn12 ?
Reply text: 104

Inquiry: Which cell viability value belongs to C[C@@H](Oc1cc(-n2cnc3ccc(CN4CCN(C)CC4)cc32)sc1C(N)=O)c1ccccc1C(F)(F)F ?
Reply text: 7.12

Inquiry: Which cell viability value belongs to N#CC(=C(O)c1ccc(Cl)cc1Cl)c1nc2ccccc2c(=O)[nH]1 [HPI-4 (Ciliobrevin A)] ?
Reply text: 87.2

Inquiry: Which cell viability value belongs to N[C@@H](Cc1c[nH]c2ccc(O)cc12)C(=O)O [5-hydroxytryptophan (5-HTP)] ?
Reply text: 99.1

----------
- System: MARIMO
- Protocol notes: cell viability relative to vehicle control; higher = less cytotoxic
- Condition set: 10 µM; SRSF2 genotype: SRSF2 wt/wt
Friendly reminder: cell viability below 60% is YES, at or above is NO.

Inquiry: Answer whether the compound CC(CNC(=O)c1cccnc1)NC(=O)c1cccnc1 (configuration not stated) has cell viability strictly less than 60%
Reply text: NO

Inquiry: Answer whether the compound C/C=C(\C)C(=O)OC1c2c(ccc3ccc(=O)oc23)OC(C)(C)C1OC(=O)/C(C)=C/C (configuration not stated) has cell viability strictly less than 60%
Reply text: NO

Inquiry: Answer whether the compound COc1ccc(-c2nc(-c3cc(C(F)(F)F)cc(C(F)(F)F)c3)n(Cc3ccc(C(N)=O)cc3)c2-c2ccc(OC)cc2)cc1 has cell viability strictly less than 60%
Reply text: NO

Inquiry: Answer whether the compound Fc1ccc(CNc2ncnc3ccc(F)cc23)cc1 has cell viability strictly less than 60%
Reply text: YES

Inquiry: Answer whether the compound Cc1cc(Cl)ccc1OCCCC(=O)NO has cell viability strictly less than 60%
Reply text: NO

Inquiry: Answer whether the compound COc1cc2c(cc1O)[C@@H](Cc1ccc(O)c(Oc3ccc(C[C@@H]4c5cc(OC)c(OC)cc5CCN4C)cc3)c1)N(C)CC2 has cell viability strictly less than 60%
Reply text: YES

Inquiry: Answer whether the compound CCOC(=O)C1=C(N)Oc2ccc(Br)cc2C1C(C#N)C(=O)OCC (configuration not stated) has cell viability strictly less than 60%
Reply text: YES

----------
- Test system: MARIMO
- Protocol notes: cell viability relative to vehicle control; higher = less cytotoxic
- Condition set: 10 µM; SRSF2 genotype: SRSF2 wt/wt
Counter-ions that a name gives are not always drawn.
Value type: cell viability (%)
Express the result in % but write the number alone.

Inquiry: Give MARIMO cell viability for CCOCC(O)COc1ccc(NC(=O)CC[S+](C)C)cc1 (stereo not drawn) [Suplatast tosylate]
Reply text: 109

Inquiry: Give MARIMO cell viability for COc1ccccc1OCC(O)CO (stereo not drawn)
Reply text: 108

Inquiry: Give MARIMO cell viability for O=C(Nc1cccc2c(=O)cc(-c3nnn[nH]3)oc12)c1ccc(OCCCCc2ccccc2)cc1
Reply text: 114

Inquiry: Give MARIMO cell viability for C[C@@H](N)c1ccc(C(=O)Nc2ccnc3[nH]ccc23)cc1
Reply text: 78

Inquiry: Give MARIMO cell viability for C[C@@H]1O[C@@H](O[C@@H]2[C@@H](O)[C@H](OCCc3ccc(O)c(O)c3)O[C@H](COC(=O)/C=C/c3ccc(O)c(O)c3)[C@H]2O)[C@H](O)[C@H](O)[C@H]1O [Isoacteoside]
Reply text: 103

Inquiry: Give MARIMO cell viability for COc1ccc(/C=C/c2cc(OC)cc(=O)o2)cc1
Reply text: 99.3

Inquiry: Give MARIMO cell viability for COc1cc2c(Nc3ccc(NC(=O)c4ccccc4)cc3)ncnc2cc1OCCCN1CCOCC1
Reply text: 72

Inquiry: Give MARIMO cell viability for NS(=O)(=O)Cc1noc2ccccc12 [Zonisamide]
Reply text: 98
